- assay_system: human 5-HT2c receptor (Homo sapiens)
- Sequence (P28335 33-458): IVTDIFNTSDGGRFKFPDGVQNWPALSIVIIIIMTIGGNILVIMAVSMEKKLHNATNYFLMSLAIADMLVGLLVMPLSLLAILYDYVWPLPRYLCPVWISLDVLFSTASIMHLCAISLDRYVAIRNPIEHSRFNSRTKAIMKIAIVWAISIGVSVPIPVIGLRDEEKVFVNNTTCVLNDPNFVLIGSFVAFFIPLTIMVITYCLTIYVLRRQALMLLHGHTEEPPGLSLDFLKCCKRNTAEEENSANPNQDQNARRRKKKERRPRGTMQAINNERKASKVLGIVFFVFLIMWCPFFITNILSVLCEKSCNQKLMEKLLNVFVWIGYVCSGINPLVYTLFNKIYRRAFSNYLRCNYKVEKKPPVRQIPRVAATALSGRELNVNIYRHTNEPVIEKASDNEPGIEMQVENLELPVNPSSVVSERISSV
- experiment_description: Intracellular IP3 Accumulation Assay
- protocol_conditions: HEK293 cells transfected with human 5-HT2c receptor; averages of at least two trials; read-out: 5-HT2C (IC50) IP Accumulation Assay
- Procedure: HEK293 cells were transfected in 15 cm sterile dishes with or without (control) 16 ug of human 5-HT2c receptor cDNA using 25 ul of lipofectamine. Cells were then incubated for 34 hours at 37° C/5% CO2 and then transfection media was removed and replaced with 100 ul of DMEM. Cells were then plated onto […] sterile dishes. The next day cells were plated into 96 well PDL microtiter plates at a density of 55K/0.2 ml. […]
pIC50: −log10 of the molar value.
Label class 1 when pIC50 >= 8; otherwise class 0.

{"molecule": "CC1CNCCc2cc(O)c(Br)cc21 (racemic) [Example 4]", "assay_system": "human 5-HT2c receptor (Homo sapiens)", "answer_label": "class 1"}

Asked: Could you tell me if the measured pIC50 of CC1CNCCc2ccc(Br)cc21 (racemic) [Example 32] reaches 8 or more?
Given back: class 1

Asked: Could you tell me if the measured pIC50 of COc1cc2c(cc1Cl)C(C)CNCC2 (racemic) [Example 2] reaches 8 or more?
Given back: class 1

Asked: Could you tell me if the measured pIC50 of COc1cc2c(cc1Br)C(C)CNCC2 (racemic) [Example 1] reaches 8 or more?
Given back: class 1

Asked: Could you tell me if the measured pIC50 of CCC1CNCCc2cc(OC)c(Br)cc21 (racemic) [Example 19] reaches 8 or more?
Given back: class 0

Asked: Could you tell me if the measured pIC50 of COc1cc2c(cc1I)C(C)CNCC2 (racemic) [Example 3] reaches 8 or more?
Given back: class 1
